target: T1, rat neuropeptide FF receptor (NPFF2) (rat, UniProt Q9EQD2 1-417); experiment: radioligand saturation binding, Cos-7 cells expressing rat NPFF2
T1 construct: Full-length cloned receptor; Also the native receptor in rat brain sections (autoradiography); also called rat NPFF2
T1 sequence (Q9EQD2 whole entry): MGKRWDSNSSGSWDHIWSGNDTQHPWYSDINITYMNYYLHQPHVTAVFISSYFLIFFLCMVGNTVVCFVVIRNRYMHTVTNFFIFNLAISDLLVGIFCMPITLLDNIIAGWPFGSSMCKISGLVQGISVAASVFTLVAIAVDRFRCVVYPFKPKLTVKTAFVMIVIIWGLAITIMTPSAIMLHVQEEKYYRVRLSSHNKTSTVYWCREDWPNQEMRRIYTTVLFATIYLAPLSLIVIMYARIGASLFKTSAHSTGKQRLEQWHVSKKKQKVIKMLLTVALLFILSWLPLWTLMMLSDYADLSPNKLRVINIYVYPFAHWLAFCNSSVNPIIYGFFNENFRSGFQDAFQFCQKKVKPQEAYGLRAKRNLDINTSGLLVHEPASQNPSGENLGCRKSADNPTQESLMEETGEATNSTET
Non-standard residues stand in square brackets, D forms with d. No end group written: not given here. *: point of attachment. NMeF = CN[C@@H](Cc1ccccc1)C(=O)O; 125I = [125I]*
readout_name: Kd (nM)

{"columns": ["binder", "value_reported"],
 "data": [
  ["[dY](125I)L[NMeF]QPQRF-NH2 [[^125I][D-Tyr^1-(NMe)Phe^3]NPFF]", 0.17]
]}
